Molecular target: human mAChR M4 (Homo sapiens)
Construct: expressed in transfected cells; host or cells: CHO-K1 (ATCC), stably co-expressing chimeric G protein Gqi5
Sequence (P08173 1-479): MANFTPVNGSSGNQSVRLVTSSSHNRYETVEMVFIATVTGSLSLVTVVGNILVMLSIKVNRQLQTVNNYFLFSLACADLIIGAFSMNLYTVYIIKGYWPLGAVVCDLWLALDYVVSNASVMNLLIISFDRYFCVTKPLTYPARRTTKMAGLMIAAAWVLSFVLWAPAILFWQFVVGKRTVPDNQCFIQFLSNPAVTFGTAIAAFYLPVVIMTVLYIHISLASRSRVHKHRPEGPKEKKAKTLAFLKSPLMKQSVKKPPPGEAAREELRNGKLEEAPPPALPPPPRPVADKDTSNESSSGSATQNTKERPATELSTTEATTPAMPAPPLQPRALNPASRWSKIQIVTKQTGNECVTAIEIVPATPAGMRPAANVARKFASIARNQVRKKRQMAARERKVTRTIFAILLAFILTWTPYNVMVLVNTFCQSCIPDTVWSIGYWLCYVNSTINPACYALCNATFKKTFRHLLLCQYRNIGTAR
Assay: mAChR M4 cell-based functional assay (calcium mobilization, EC80 acetylcholine), human M4
Conditions: Table 9; M4/Gqi5/CHO-K1 cells, decrease of EC80 acetylcholine response
Provide the reported IC50 of each item.
Answer by giving the amount and then stating its unit.

Return value of IC50 for input Cc1cnn(C)c1-c1ccc(NCCC2C[C@@H]3CN(Cc4ccccc4F)C[C@@H]3C2)nn1 (stereo partly shown) , no commentary.
0.0578 µM

Return value of IC50 for input "Cc1nn(C)cc1-c1ccc(NC[C@H]2C[C@@H]3CN(CC4CCCCC4)C[C@@H]3C2)nn1" , no commentary.
0.201 µM

Return value of IC50 for input "Cc1cnn(C)c1-c1ccc(N[C@H]2C[C@@H]3CN(CC4CCOCC4)C[C@@H]3C2)nn1" , no commentary.
0.01 µM

Return value of IC50 for input "Cc1nn(C)cc1-c1ccc(N[C@H]2C[C@@H]3CN(CCc4ccccc4)C[C@@H]3C2)nn1" , no commentary.
0.004 µM

Return value of IC50 for input Cc1cnn(C)c1-c1ccc(NCCC2C[C@@H]3CN(CC4CC5C=CC4C5)C[C@@H]3C2)nn1 (stereo partly shown) , no commentary.
0.0062 µM

Return value of IC50 for input Cc1cnn(C)c1-c1ccc(OCC2C[C@@H]3CN(Cc4ccc5c(c4)OCO5)C[C@@H]3C2)nn1 (stereo partly shown) , no commentary.
0.371 µM

Return value of IC50 for input Cc1cccnc1CN1C[C@H]2CC(COc3ccc(-c4c(C)cnn4C)nn3)C[C@H]2C1 (stereo partly shown) , no commentary.
1.43 µM

* * *

Target: human mAChR M4 (Homo sapiens, UniProt P08173)
Construct: expressed in transfected cells; host or cells: CHO-K1 (ATCC), stably co-expressing chimeric G protein Gqi5
Sequence (P08173 1-479): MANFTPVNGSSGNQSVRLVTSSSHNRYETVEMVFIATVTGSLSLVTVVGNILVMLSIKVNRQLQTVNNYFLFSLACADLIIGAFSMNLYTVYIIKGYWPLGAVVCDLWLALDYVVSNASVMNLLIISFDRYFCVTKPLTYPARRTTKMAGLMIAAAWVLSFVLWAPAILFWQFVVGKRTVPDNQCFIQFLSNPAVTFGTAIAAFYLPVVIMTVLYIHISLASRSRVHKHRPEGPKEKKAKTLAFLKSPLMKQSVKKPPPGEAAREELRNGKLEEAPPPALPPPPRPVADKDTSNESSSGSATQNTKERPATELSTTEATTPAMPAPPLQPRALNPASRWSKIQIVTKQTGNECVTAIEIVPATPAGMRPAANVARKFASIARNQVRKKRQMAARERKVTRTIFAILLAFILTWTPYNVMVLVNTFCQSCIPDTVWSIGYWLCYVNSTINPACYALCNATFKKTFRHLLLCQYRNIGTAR
Assay: mAChR M4 cell-based functional assay (calcium mobilization, EC80 acetylcholine), human M4
Conditions: Table 10
Provide the reported Human M4 Emin of each item.
Write the number in % without appending the unit.

Return value of Human M4 Emin for input "Cc1ccc(-c2ccc(N[C@H]3C[C@@H]4CN(CC5CCOCC5)C[C@@H]4C3)nn2)cc1" , no commentary.
6

Return value of Human M4 Emin for input "Cc1nn(C)cc1-c1cnc(N[C@H]2C[C@@H]3CN(CC45CC6CC(CC(C6)C4)C5)C[C@@H]3C2)cn1" , no commentary.
4

Return value of Human M4 Emin for input "CC1(CN2C[C@H]3C[C@H](Nc4ccc(-c5cc(F)ccc5Cl)nn4)C[C@H]3C2)COC1" , no commentary.
4

Return value of Human M4 Emin for input "CC(=O)Nc1ccc(-c2ccc(N[C@H]3C[C@@H]4CN(CCC(C)(C)C)C[C@@H]4C3)nn2)cc1" , no commentary.
5

All values here come from patent US12577234B2.
